Assignment: determine reported pEC50 for the given molecules.
- Test system: Balamuthia mandrillaris (CDC:V039; ATCC 50209) trophozoites
- method.summary: CellTiter-Glo 2.0 trophocidal assay, B. mandrillaris
- Type: cell-based
- condition.description: Balamuthia mandrillaris, ATCC50209, 72 h, logarithmic trophozoites, 72 h, n = 3; read-out: Balamuthia mandrillaris EC50 ± SD
pEC50: −log10 of the molar value.

Examples with answers:
// query Give its pEC50 value. Item: O=C(N[C@H](CO)c1ccccc1)c1cc(-c2c[nH]c3ncccc23)[nH]n1 [Compound S12]
// result < 4.70

// query Which value of pEC50 has been reported for Nc1cc(-c2cc3c4c(n[nH]c4c2)Nc2ccccc2O3)ncn1 [Compound 1b] in the records?
// result 5.74

// query Item under review: CN1CC2(CCN(c3ncc(-c4ccc5c(Nc6cnccn6)ccnc5c4)cn3)C2)C1 [Compound 7b] . Reported pEC50?
// result 5.85

Each molecule below has a reported value. Please supply its pEC50.
1. O=C1OCc2ccc(Nc3nccc(Nc4cccc5c4C(=O)NC5)n3)cc21 [Compound S20]
2. CC(=O)c1ccc2c(c1)c1cc(C(C)=O)ccc1n2-c1ccc(N(C)C)cc1 [Compound S37]
3. Cn1cc(Nc2nc(NCCCC(F)(F)F)c3nc[nH]c3n2)cn1 [Compound S24]
4. Cn1cc(Nc2nc(N3CCOCC3)c3nc[nH]c3n2)cn1 [Compound S22]
5. O=C(N[C@H](CO)c1ccccc1)c1ccc(-c2c[nH]c3ncccc23)nc1 [Compound S15]
6. c1cnc(Nc2ccnc3cc(C4CCCNC4)ccc23)cn1 (stereo not drawn) [Compound S18]

// result
< 4.70
< 4.70
< 4.70
< 4.70
< 4.70
< 4.70

----------
- System: MRC5 cells
- method.summary: Human fetal lung fibroblast (MRC5) cell cytotoxicity assay (resazurin)
- condition.description: Table S2; in µM
Give MRC5 TC50 ± Standard Deviation for every item shown.

The examples below pair each entry with its known result.
// query For CNc1nccc(-c2cc3c4c(n[nH]c4c2)Nc2ccccc2O3)n1 , what is its reported MRC5 TC50 ± Standard Deviation?
// result > 50

// query Name the recorded MRC5 TC50 ± Standard Deviation for CN(C)Cc1ccc(-c2cc3c(-c4cnn(C)c4)ccnc3[nH]2)cc1 .
// result 14 ± 2.4

// query MRC5 TC50 ± Standard Deviation lookup needed for Nc1ccnc(-c2cc3c4c(n[nH]c4c2)Nc2ccccc2O3)n1 , thanks.
// result > 50

// query Would you mind telling me what MRC5 TC50 ± Standard Deviation value was observed for O=C(N[C@H](CO)c1ccccc1)c1ccc(-c2c[nH]c3ncccc23)nc1 ?
// result > 50

Alright, here's another molecule for you.
// query Item Cc1c(-c2cnn(C3CCOCC3)c2)cnc2[nH]cc(-c3cccc(C#N)c3)c12 has what recorded MRC5 TC50 ± Standard Deviation?
// result > 50

----------
- System: L6 cells
- method.summary: Rat skeletal muscle cell line (L6) cytotoxicity assay (resazurin)
- condition.description: Table S2; in µM
property.measured: L6 TC50 ± Standard Deviation

Worked cases, answers included:
// query If you can, please state the reported L6 TC50 ± Standard Deviation value of N#Cc1cccc(-c2n[nH]c3ncc(-c4cnn(C5CCOCC5)c4)cc23)c1 [Compound 4a] .
// result 2.8 ± 0.92

// query Give its L6 TC50 ± Standard Deviation value. Item: Cn1cc(-c2cnc3[nH]cc(-c4cncc(C#N)c4)c3c2)cn1 [Compound 4e]
// result > 50

Would you be so kind as to report L6 TC50 ± Standard Deviation for each listed record?
1. c1cc(-c2c[nH]c3ncc(-c4cnn(C5CCOCC5)c4)cc23)ccn1 [Compound S31]
2. Cn1cc(Nc2nc(NCC(F)(F)F)c3nc[nH]c3n2)cn1 [Compound S21]
3. Fc1ccc(Nc2nc(NCC(F)(F)F)c3nc[nH]c3n2)cc1 [Compound S23]
4. Cc1c(-c2cnn(C3CCOCC3)c2)cnc2[nH]cc(-c3cccc(C#N)c3)c12 [Compound 4b]
5. CN(C)Cc1ccc(-c2cc3c(-c4cnn(C)c4)ccnc3[nH]2)cc1 [Compound 5c]
6. Cn1nc2c3c(cc(-c4ccnc(N)n4)cc31)Oc1ccccc1N2 [Compound 1e]
7. Cn1cc(Nc2nc(N3CCOCC3)c3nc[nH]c3n2)cn1 [Compound S22]

// result
["5.7 ± 0.49", "28 ± 1.4", "> 50", "11 ± 1.5", "< 0.62", "> 50", "11 ± 1.0"]

----------
- System: MRC5 cells
- method.summary: Human fetal lung fibroblast (MRC5) cell cytotoxicity assay (resazurin)
- condition.description: Table S2; in µM
property.measured: MRC5 TC50 ± Standard Deviation

Please state, for each entry, its recorded MRC5 TC50 ± Standard Deviation.
1. Cn1cc(Nc2nc(NCC(F)(F)F)c3nc[nH]c3n2)cn1 [Compound S21]
2. Cn1cc(-c2cnc3[nH]cc(-c4cncc(C#N)c4)c3c2)cn1 [Compound 4e]
3. Fc1ccc(Nc2nc(NCC(F)(F)F)c3nc[nH]c3n2)cc1 [Compound S23]
4. O=C1OCc2ccc(Nc3nccc(Nc4cccc5c4C(=O)NC5)n3)cc21 [Compound S20]
5. c1cc(-c2c[nH]c3ncc(-c4cnn(C5CCOCC5)c4)cc23)ccn1 [Compound S31]
6. Cn1cc(Nc2nc(N3CCOCC3)c3nc[nH]c3n2)cn1 [Compound S22]

// result
[50, "> 50", "> 50", "> 50", "7.9 ± 2.3", "19 ± 0.42"]

Please state, for each entry, its recorded MRC5 TC50 ± Standard Deviation.
1. CCOc1cc(-c2ccnc(N)n2)cc2c1c(N)nn2C [Compound 1d]
2. O=C(N[C@H](CO)c1ccccc1)c1cc(-c2c[nH]c3ncccc23)[nH]n1 [Compound S12]
3. Cn1nc2c3c(cc(-c4ccnc(N)n4)cc31)Oc1ccccc1N2 [Compound 1e]
4. Cn1cc(Nc2nc(NCCCC(F)(F)F)c3nc[nH]c3n2)cn1 [Compound S24]
5. CN(C)S(=O)(=O)c1ccc(N/N=C2\C(=O)Nc3ccccc32)cc1 [Compound S30]
6. FC1(F)CCN(c2nc(Nc3ccsc3)nc3[nH]cnc23)CC1 [Compound 6e]
7. Fc1ccc(Nc2nccc(-c3c(C4CC4)nn4ncccc34)n2)cc1F [Compound 2q]
8. N#Cc1cccc(-c2n[nH]c3ncc(-c4cnn(C5CCOCC5)c4)cc23)c1 [Compound 4a]

// result
1. > 50
2. 42 ± 7.7
3. > 50
4. 50 ± 0
5. > 50
6. > 50
7. > 50
8. > 50

----------
- method.summary: Human fetal lung fibroblast (MRC5) cell cytotoxicity assay (resazurin)
- condition.description: human
property.measured: CC50 at 48 h (µM)
One number for each entry, in µM.

// query Which value of CC50 at 48 h has been reported for CN(C)Cc1ccc(-c2cc3c(-c4cnn(C)c4)ccnc3[nH]2)cc1 in the records?
// result 11

----------
- Test system: MRC5 cells
- method.summary: Human fetal lung fibroblast (MRC5) cell cytotoxicity assay (resazurin)
- condition.description: Table S2
Please go through the items and note down their MRC5 TC50 ± Standard Deviation.

// query Quick one: MRC5 TC50 ± Standard Deviation of COc1ccn2c(NC(=O)c3cccc(F)c3)c(-c3ccccn3)nc2c1 ?
// result 59 µM

// query Please report the recorded MRC5 TC50 ± Standard Deviation for COc1ccn2c(Nc3ccccc3F)c(-c3cccnc3)nc2c1 .
// result 64 µM

// query Bench note: what MRC5 TC50 ± Standard Deviation did COc1ccn2c(NC(=O)c3ccc(F)cn3)c(-c3ccccn3)nc2c1 show?
// result 64 µM

// query For Fc1ccn2c(NC3CC3)c(-c3ccccn3)nc2c1 , what is its reported MRC5 TC50 ± Standard Deviation?
// result 64 µM

Below is a list of compounds. For each, state its recorded MRC5 TC50 ± Standard Deviation.
1. COc1ccn2c(NC(=O)c3ccccc3F)c(-c3ccccn3)nc2c1
2. COc1ccn2c(Nc3ccccc3F)c(-c3cnn(C)c3)nc2c1
3. COc1ccn2c(Nc3ccccc3F)c(-c3cccc(C)n3)nc2c1

// result
1: 64 µM; 2: 64 µM; 3: 64 µM

Consider the following items and state reported MRC5 TC50 ± Standard Deviation for each.
1. COc1ccn2c(Nc3ccccc3F)c(-c3ccncn3)nc2c1
2. Nc1c(-c2ccccn2)nc2cc(F)ccn12

// result
1. 46 µM
2. 64 µM

# return MRC5 TC50 ± Standard Deviation for each item in the list
1. COc1ccn2c(Nc3ccccc3F)c(-c3ncccn3)nc2c1
2. CC(C)Nc1c(-c2ccccn2)nc2cc(C(F)(F)F)ccn12

// result
1. 49 µM
2. 53 µM

----------
- System: Balamuthia mandrillaris (CDC:V039; ATCC 50209) trophozoites
- method.summary: CellTiter-Glo 2.0 trophocidal assay, B. mandrillaris
- Assay type: cell-based
- condition.description: Balamuthia mandrillaris, ATCC50209, 72 h, logarithmic trophozoites, 72 h, n = 3; read-out: Balamuthia mandrillaris EC50 ± SD
- Description: For sub-culturing, 0.25% Trypsin–EDTA (Gibco) cell detachment reagent was used to detach the cells from the culture flasks.
property.measured: pEC50
Answers are plain numbers, as −log10 of the molar value.

// query Which value of pEC50 has been reported for Cn1nc2c3c(cc(-c4ccnc(N)n4)cc31)Oc1ccccc1N2 in the records?
// result 4.85

Below are some compounds; for each one, tell me its pEC50.
1. CNc1nccc(-c2cc3c4c(n[nH]c4c2)Nc2ccccc2O3)n1
2. Cn1cc(-c2cnc3[nH]cc(-c4cncc(C#N)c4)c3c2)cn1
3. N=C(N)c1ccc(OCCCCCOc2ccc(C(=N)N)cc2)cc1 [Pentamidine, reference compound]
4. CCC(C)(C)C(=O)O[C@H]1C[C@@H](C)C=C2C=C[C@H](C)[C@H](CC[C@@H]3C[C@@H](O)CC(=O)O3)[C@H]21 [Simvastatin, reference compound]
5. N#Cc1cccc(-c2n[nH]c3ncc(-c4cnn(C5CCOCC5)c4)cc23)c1

// result
1. 5.72
2. 5.08
3. 4.74
4. 5.16
5. 5.48
